# System: mESC Bmi1-luciferase reporter, firefly/renilla ratio, 24 h
# Protocol summary: compounds raising Bmi1 reporter signal – mouse embryonic stem cells, luciferase, cherry-pick, esBAF inhibitor project, dose response (AID 651717);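 note: luciferase knocked into Bmi1 locus with EF-1a renilla as cell number control; rising ratio signals esBAF inhibition which derepresses Bmi1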
Listed here are molecules together with their documented AC40.

For orientation, consider the following solved cases.
Cc1ccc(-c2ccc(CCC(=O)O)n2-c2cccc(O)c2)cc1; 10.1 µM
Cc1ccc(C2/C(=C(/O)c3cnn(-c4ccccc4)c3C)C(=O)C(=O)N2CCN2CCOCC2)o1 (stereo unspecified); 8.69 µM
Cc1ccc2sc(NC(=O)C3CC3)nc2c1C; 6.72 µM
Cc1cc(N2CCOCC2)nc2ccc(NC(=O)CCC(=O)N3CCN(c4ccccc4)CC3)cc12; 11 µM
COc1ccc(C2CC2/C(=N/OC(=O)c2cccs2)c2ccccc2)cc1 (stereo unspecified); 2.9 µM

q: Request the reported AC40 associated with COc1ccc(-n2nc(C(=O)NCC(=O)N3CCCC3)c3ccccc3c2=O)cc1Cl
a: 20.9 µM

q: // query AC40 value for entry Cc1ccc(C(=O)NNC(=O)c2ccc3ccccc3c2)cc1
a: 7.86 µM

q: I'd like to know its AC40. The molecule in question is COc1ccc(/C=N/Nc2nc(C)nc(N)n2)cc1
a: 15.5 µM

q: Param item = c1ccc(-c2csc(Nc3cccnc3)n2)nc1 ; retrieve measured AC40.
a: 4.74 µM

q: // AC40 lookup, key: O=C1c2ccccc2C2N1CCCN2C(=O)c1sc2ccccc2c1Cl (stereo unspecified)
a: 4.3 µM

q: Fill in: AC40 of COC(=O)c1ccc2c(C)c(C3(O)CCCCC3)[nH]c2c1 is ___
a: 7.47 µM
